# System: A2780 cells
# assay_comment: Cell proliferation assay (Cell Titer-Glo), A2780 cells
# Format: cell-based
# experimental_context: Homo sapiens, typically 72 hrs post-treatment
readout_kind: IC50 (µM)
Numbers only, in µM.

CC1(C)CNCc2cc(Nc3ncc4c(n3)OCN(c3c(Cl)cccc3Cl)C4=O)ccc21	3.85

Please turn your attention to the following entry.
The compound identified as N#Cc1cc(Nc2ncc3c(n2)OCN(c2c(Cl)cccc2Cl)C3=O)ccc1N1CCNCC1 registered its IC50 at 6.8

###

Provide the recorded pIC50 for the entries that follow.
# System: Panc-10.05 cells
# assay_comment: Cytotoxicity assay (resazurin), Panc-10.05 cells
# Format: cell-based
# experimental_context: Homo sapiens, Panc1005, read-out: Cell Viability Panc 10.05 IC50
Counter-ions that a name gives are not always drawn.
Numbers only, as −log10 of the molar value.

Some entries whose results are on file:
Cc1cc(Nc2ncc3c(n2)OCN(c2c(Cl)cccc2Cl)C3=O)ccc1C1CCNCC1 [Example 1.60]	5.55
CC1(C)NCCc2cc(Nc3ncc4c(n3)OCN(c3c(Cl)cccc3Cl)C4=O)ccc21 [Example 1.227]	5.31
COc1cc(Nc2ncc3c(n2)OCN(c2c(Cl)cccc2Cl)C3=O)ccc1N1CCNCC1 [Example 1.53, dihydrochloride]	5.03
O=C1c2cnc(Nc3ccc(C4CCNCC4)cc3)nc2OCN1c1c(Cl)cccc1Cl [Example 1.12]	5.50

Please turn your attention to the following entry.
The compound identified as O=C1c2cnc(Nc3ccc4c(c3)CNCC43CC3)nc2OCN1c1c(Cl)cccc1Cl [Example 1.51] registered its pIC50 at 5.48
